species on record: Rattus norvegicus; assay: Channel opening activity at KATP channel in Wistar rat pancreatic islets assessed as glucose-induced residual insulin secretion at 10 uM after 90 mins by radioimmunology
Strictly below 40% in Activity: met. Otherwise: not met.

[[record]]
compound = "CC1(C)CC(N/C(=N/C#N)Nc2cccc(C#N)c2)c2cc(Br)ccc2O1 (stereo unspecified)"
assigned_class = "not met"

[[record]]
compound = "CC1(C)CC(NC(=S)Nc2cccc(C#N)c2)c2cc(Br)ccc2O1 (stereo unspecified)"
assigned_class = "met"

[[record]]
compound = "CC1(C)CC(NC(=S)Nc2ccsc2)c2cc(Cl)ccc2O1 (stereo unspecified)"
assigned_class = "not met"

[[record]]
compound = "CC1(C)CC(NC(=S)Nc2ccc([N+](=O)[O-])cc2)c2cc(Cl)ccc2O1 (stereo unspecified)"
assigned_class = "met"

[[record]]
compound = "CC1(C)CC(NC(=S)Nc2cccnc2)c2cc(F)ccc2O1 (stereo unspecified)"
assigned_class = "not met"

[[record]]
compound = "CC1(C)CC(NC(=S)Nc2ccc([N+](=O)[O-])cc2)c2cc(Br)ccc2O1 (stereo unspecified)"
assigned_class = "met"

[[record]]
compound = "CC1(C)CC(NC(=S)Nc2ccsc2)c2cc(Br)ccc2O1 (stereo unspecified)"
assigned_class = "not met"

[[record]]
compound = "CC1(C)CC(NC(=S)Nc2ccc(C#N)cc2)c2cc(F)ccc2O1 (stereo unspecified)"
assigned_class = "met"

[[record]]
compound = "CC1(C)CC(N/C(=N/C#N)Nc2ccc(Cl)cc2)c2cc(Br)ccc2O1 (stereo unspecified)"
assigned_class = "not met"

[[record]]
compound = "CC1=Nc2ccc(Cl)cc2S(=O)(=O)N1"
assigned_class = "not met"

